Listing of Ki toward Human σ1 receptor (Homo sapiens, UniProt Q99720), each taken from a published source.
property: Ki

>  <compound>
CCC[C@H](c1nc2ccc(F)cc2c(=O)n1CC)N1CCCN(CC)CC1

>  <property>
Ki

>  <reported>
< 0.5 µM

$$$$
>  <compound>
Cc1nn2c(C3CCCN(Cc4ccccn4)C3)ccnc2c1-c1ccncc1 (stereo not drawn)

>  <property>
Ki

>  <reported>
> 1 µM

$$$$
>  <compound>
CCN1CC(C2CCN(Cc3ccc(F)cc3)CC2)OC2(CC2)C1=O (stereo not drawn)

>  <property>
Ki

>  <reported>
≥ 0.5 µM

$$$$
>  <compound>
CCC[C@@H](c1nc2ccc(Cl)cc2c(=O)n1C)N1CCCN[C@H](C)C1

>  <property>
Ki

>  <reported>
0.5 to 1 µM

$$$$
>  <compound>
CCCC(c1nc2ncc(Br)cc2c(=O)n1CC)N1CCCN(C)CC1 (stereo not drawn)

>  <property>
Ki

>  <reported>
> 1 µM

$$$$
>  <compound>
CC(=O)N1CCC(CNCc2c(C)nn3c([C@H]4CCCN(Cc5ccc(Cl)cc5)C4)ccnc23)CC1

>  <property>
Ki

>  <reported>
< 0.5 µM

$$$$
>  <compound>
CCCC(c1nc2cc(Br)c(F)cc2c(=O)n1CC)N1CCCN(CC)CC1 (stereo not drawn)

>  <property>
Ki

>  <reported>
< 0.5 µM

$$$$
>  <compound>
COc1ccc(CN2CC(C3CCN(CC(C)C)CC3)OC3(CC3)C2=O)cc1 (stereo not drawn)

>  <property>
Ki

>  <reported>
≥ 0.5 µM

$$$$
>  <compound>
Cc1nn2c([C@H]3CCCN([C@H](CO)c4ccccc4)C3)ccnc2c1-c1ccncc1

>  <property>
Ki

>  <reported>
> 1 µM

$$$$
>  <compound>
CCCC(c1nc2cnc(OC)cc2c(=O)n1CC)N1CCCN(C)CC1 (stereo not drawn)

>  <property>
Ki

>  <reported>
> 1 µM

$$$$
>  <compound>
Cc1nn2c(C3CCCN(Cc4ccc(Cl)cc4)C3)ccnc2c1-c1ccncn1 (stereo not drawn)

>  <property>
Ki

>  <reported>
> 1 µM

$$$$
>  <compound>
CCOc1ccc(-c2c(C)nn3c(C4CCCN(Cc5ccccc5)C4)ccnc23)cc1 (stereo not drawn)

>  <property>
Ki

>  <reported>
0.5 to 1 µM

$$$$
>  <compound>
Cc1nn2c(C3CCCN(Cc4ccc(Cl)cc4)C3)ccnc2c1CNCC1CC1 (stereo not drawn)

>  <property>
Ki

>  <reported>
< 0.5 µM

$$$$
>  <compound>
Cc1nn2c(C3CCCN(Cc4ccc(F)c(F)c4)C3)ccnc2c1CNCC1CCOCC1 (stereo not drawn)

>  <property>
Ki

>  <reported>
< 0.5 µM

$$$$
>  <compound>
Cc1cc2nccc(C3CCCN(Cc4c(F)cccc4F)C3)n2n1 (stereo not drawn)

>  <property>
Ki

>  <reported>
> 1 µM

$$$$
>  <compound>
CCC[C@H](c1nc2ccc(F)cc2c(=O)n1CC)N1CCN[C@H](C)CC1

>  <property>
Ki

>  <reported>
> 1 µM

$$$$
>  <compound>
Cc1nn2c(C3CCCN(Cc4ccc(Cl)cc4)C3)ccnc2c1CNC(C)C (stereo not drawn)

>  <property>
Ki

>  <reported>
< 0.5 µM

$$$$
>  <compound>
CC(C)CN(C)[C@H]1CC[C@@]2(CC1)CN(Cc1ccccc1)CC1(CC1)O2

>  <property>
Ki

>  <reported>
< 0.1 µM

$$$$
